For each record, write down the corresponding TGI.
Test system: NCI-H522 lung
assay: NCI tumour cell line growth inhibition, 48 h
Where a SMILES comes first, the peptide text is derived from it. [ ]: non-standard residue; d: D form. The star is where a group is joined. ξ: configuration not given here. ξD = NC(CC(=O)O)C(=O)O; Ac3c = NC1(C(=O)O)CC1; Boc = CC(C)(C)OC(=O)*; OBn = c1ccc(CO*)cc1

- compound: "COC(=O)C(Cc1c[nH]c2ccccc12)NC(=O)C(Cc1c[nH]c2ccccc12)NC(=O)C(Cc1c[nH]c2ccccc12)NC(=O)C(Cc1c[nH]c2ccccc12)NC(=O)OC(C)(C)C (stereo unspecified) (Boc-WWWW-OMe; configuration not given here)"
  TGI: "> 100 µM"
- compound: "CN(C)CCCNc1c2ccccc2nc2cccc([N+](=O)[O-])c12"
  TGI: "< 0.001 µM"
- compound: "COc1cc2c(cc1OCCCOC1=C=C=C(c3ccc4c(c3)c3cc(-c5ccc(OCCCOc6cc7c(cc6OC)C(=O)N6CCC[C@H]6C=N7)cc5)ccc3n4S(=O)(=O)c3ccc(C)cc3)C=C1)N=C[C@@H]1CCCN1C2=O"
  TGI: "39.6 µM"

Required: TGI, one value per compound below.
1. O=c1[nH]cnc2c1nnn2C1OC(CO)C(O)C1O (stereo unspecified)
2. COC(=O)C1(NC(=O)C(CC(=O)OCc2ccccc2)NC(=O)OC(C)(C)C)CC1 (stereo unspecified) (Boc-[ξD](OBn)-[Ac3c]-OMe)
3. Nc1ccccc1NC(=O)CCCCCCC(=O)Nc1ccc2c(c1)/C(=C/c1ccc[nH]1)C(=O)N2

1: 14 µM; 2: > 100 µM; 3: > 100 µM

* * *

Tested on: SNB-19 CNS
assay: NCI tumour cell line growth inhibition, 48 h
metric.name: TGI (µM)
Numbers only, in µM.

- structure.string: "COc1ccc(/C=C(\\C(=C/c2ccc(OC)cc2)[N+](=O)[O-])[N+](=O)[O-])cc1"
  unit.abbrev: "µM"
  value: 30.2

Now look at this one.
Given the compound O=C(Nc1ccc(Cl)cc1)c1cc2c(cc1O)[nH]c1ccccc12 , what is its reported TGI?
30.6

* * *

For each record, write down the corresponding TGI.
Test system: T-47D breast
assay: NCI tumour cell line growth inhibition, 48 h

The cases that follow already have their TGI on record.
- structure.string: "COCN1CCN=c2c1c1c3c(c4ccccc4n23)CCC1"
  metric.name: "TGI"
  value: "> 100 µM"
- structure.string: "C=CCN(c1cc(OCc2ccccc2)c(NC(C)=O)cc1[N+](=O)[O-])S(C)(=O)=O"
  metric.name: "TGI"
  value: "> 100 µM"
- structure.string: "CCN(CC)c1ccc(N=C2C=C(C(=O)Nc3ccc(S(C)(=O)=O)cc3)C(=O)c3ccccc32)c(C)c1"
  metric.name: "TGI"
  value: "> 100 µM"
- structure.string: "CN(C)c1ccc(C(=O)c2ccc(N(C)C)c(N)c2)cc1N"
  metric.name: "TGI"
  value: "> 46.1 µM"
- structure.string: "Cc1cc(NS(=O)(=O)c2ccc(NC(=O)c3cccc4c(NNc5ccc(S(=O)(=O)N=C(N)N)cc5)c5ccccc5nc34)cc2)no1"
  metric.name: "TGI"
  value: "> 100 µM"

Required: TGI, one value per compound below.
1. O=C(Nc1c(Cl)cc([N+](=O)[O-])cc1Cl)C(=O)C1C(=O)NC(=S)NC1=O
2. ON(CCc1ccncc1)Cc1ccccc1
3. Cc1cc(=O)c2cc(N=Cc3ccc([N+](=O)[O-])o3)ccc2o1
4. COc1cc(C(=O)/C=C/c2c(-c3ccc(F)cc3)nc3sc(C)cn23)cc(OC)c1OC

1. > 100 µM
2. > 100 µM
3. > 100 µM
4. > 100 µM

Required: TGI, one value per compound below.
1. COc1ccc2c(c1)nc1n2C(N)=Nc2ccccc2S1
2. CN1C/C(=C\c2ccc(Cl)cc2)C(=O)/C(=C/c2ccc(Cl)cc2)C1

> 92.3 µM
> 100 µM
